Data origin: patent US10710978B2

- MEASURED_TARGET: TLK2 (Homo sapiens (Human), UniProt Q86UE8)
- Sequence (Q86UE8 whole entry): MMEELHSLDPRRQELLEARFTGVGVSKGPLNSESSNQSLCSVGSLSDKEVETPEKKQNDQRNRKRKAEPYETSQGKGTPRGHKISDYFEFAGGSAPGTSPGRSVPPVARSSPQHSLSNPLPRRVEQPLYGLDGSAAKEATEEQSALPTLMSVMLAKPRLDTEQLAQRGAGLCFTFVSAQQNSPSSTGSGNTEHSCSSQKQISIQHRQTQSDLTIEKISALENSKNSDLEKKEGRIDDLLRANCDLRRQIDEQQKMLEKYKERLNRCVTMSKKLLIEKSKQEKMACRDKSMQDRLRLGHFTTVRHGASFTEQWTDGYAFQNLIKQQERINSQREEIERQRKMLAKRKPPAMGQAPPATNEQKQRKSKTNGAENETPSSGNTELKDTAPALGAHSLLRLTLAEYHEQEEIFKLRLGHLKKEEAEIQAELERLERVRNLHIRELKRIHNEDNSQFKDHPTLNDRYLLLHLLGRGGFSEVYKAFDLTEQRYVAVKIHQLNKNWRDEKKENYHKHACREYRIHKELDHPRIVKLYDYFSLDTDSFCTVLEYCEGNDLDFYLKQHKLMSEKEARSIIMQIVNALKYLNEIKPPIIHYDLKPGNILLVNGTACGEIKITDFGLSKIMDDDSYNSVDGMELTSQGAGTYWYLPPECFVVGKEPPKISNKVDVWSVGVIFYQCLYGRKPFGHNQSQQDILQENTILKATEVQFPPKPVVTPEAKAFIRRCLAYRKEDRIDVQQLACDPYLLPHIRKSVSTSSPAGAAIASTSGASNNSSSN
- EXPERIMENTAL_PROTOCOL: KiNativ assay
- Assay type: binding
- PROTOCOL_CONDITIONS: H929 live cell, read-out: inhibition (10 μM)
I'd be grateful if you could share measured inhibition at 10 µM for these entries.
All answers are understood in %, so give the number only.

Form field, inhibition at 10 µM with TLK2 (Homo sapiens (Human), UniProt Q86UE8), item COc1cc(NS(=O)(=O)C2CC2)ccc1-c1cnc(N)c(-c2ccc3c(c2)CCNC3=O)c1 : -3

Form field, inhibition at 10 µM with TLK2 (Homo sapiens (Human), UniProt Q86UE8), item Nc1ncc(-c2cccc([N+](=O)[O-])c2F)cc1-c1ccc2c(c1)CCNC2=O : 34

Form field, inhibition at 10 µM with TLK2 (Homo sapiens (Human), UniProt Q86UE8), item Nc1ncc(-c2ccc(NS(=O)(=O)C3CC3)cc2F)cc1-c1ccc2c(c1)CCNC2=O : -20.1

Form field, inhibition at 10 µM with TLK2 (Homo sapiens (Human), UniProt Q86UE8), item CN(C1CC1)S(=O)(=O)c1ccc(-c2cnc(N)c(-c3ccc4c(c3)CCNC4=O)c2)c(F)c1 : 14.2

Form field, inhibition at 10 µM with TLK2 (Homo sapiens (Human), UniProt Q86UE8), item Nc1ncc(-c2ccc(NS(=O)(=O)C3CC3)cc2OC2CCCCC2)cc1-c1ccc2c(c1)CCNC2=O : -3.5

Form field, inhibition at 10 µM with TLK2 (Homo sapiens (Human), UniProt Q86UE8), item Nc1ncc(-c2cccc3ncsc23)cc1-c1ccc2c(c1)CCNC2=O : 12.6
